# test_system: cynomolgus monkey MuSK (cynomolgus monkey, UniProt A0A2K5USF6 24-487)
# Sequence (A0A2K5USF6 entry or part of it): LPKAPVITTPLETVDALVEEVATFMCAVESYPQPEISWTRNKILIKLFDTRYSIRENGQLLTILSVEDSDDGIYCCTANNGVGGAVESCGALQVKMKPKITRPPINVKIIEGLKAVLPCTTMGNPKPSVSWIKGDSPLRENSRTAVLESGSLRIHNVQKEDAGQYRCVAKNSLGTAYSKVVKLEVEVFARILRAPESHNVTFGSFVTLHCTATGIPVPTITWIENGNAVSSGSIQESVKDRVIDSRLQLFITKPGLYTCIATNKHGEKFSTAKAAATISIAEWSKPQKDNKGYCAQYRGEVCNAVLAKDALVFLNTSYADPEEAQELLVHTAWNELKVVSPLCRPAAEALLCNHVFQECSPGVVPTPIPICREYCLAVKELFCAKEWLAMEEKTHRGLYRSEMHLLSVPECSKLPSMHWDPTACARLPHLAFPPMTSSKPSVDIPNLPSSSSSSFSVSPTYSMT
# test_summary: Biacore, MuSK on chip, association pH 7.4, dissociation pH 5.5
quantity_name: kon (M⁻¹ s⁻¹)
Express the result in M⁻¹ s⁻¹ but write the number alone.

// query kon value for entry 3B2g1m4 (antibody, human IgG1, V domains shown, human IgG1-LALA backbone; produced in HEK293 cells) VH: EVQLLESGGGLVQPGGSLRLSCAASGFTFSDYGMSWVRQAPGKGLEWVSAIPWQGGSTYYKESVKGRFTISRDNSKNTLYLQMNSLRAEDTAVYYCAKRSGRIAFGALDAWGQGTLVTVSS VL: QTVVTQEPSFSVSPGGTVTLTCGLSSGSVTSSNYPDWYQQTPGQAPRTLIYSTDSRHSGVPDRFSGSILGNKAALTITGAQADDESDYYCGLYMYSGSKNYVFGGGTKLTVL
680000
